ASSAY_NOTES: aqueous solubility
Type: physicochemical
Counter-ions that a name gives are not always drawn.
List of aqueous solubility values.
Report the figure along with its unit, number first.

Here are 5 molecules together with their reported answers.
CN[C@H]1CC[C@@H](c2ccc(Cl)c(Cl)c2)c2ccccc21 [sertraline benzoic acid salt, Benzoic Acid Salt of Sertraline] | 520 µg/mL
CN[C@H]1CC[C@@H](c2ccc(Cl)c(Cl)c2)c2ccccc21 [sertraline fumaric acid salt, Fumaric Acid Salt of Sertraline] | 2800 µg/mL
CN[C@H]1CC[C@@H](c2ccc(Cl)c(Cl)c2)c2ccccc21 [sertraline L-tartaric acid salt, L-Tartaric Acid Salt of Sertraline] | 4800 µg/mL
CN[C@H]1CC[C@@H](c2ccc(Cl)c(Cl)c2)c2ccccc21 [sertraline (−)-camphor-10-sulfonic acid salt] | 1500 µg/mL
CN[C@H]1CC[C@@H](c2ccc(Cl)c(Cl)c2)c2ccccc21 [sertraline p-toluenesulfonic acid salt] | 400 µg/mL

Query molecule follows.
May I ask what aqueous solubility has been recorded for CN[C@H]1CC[C@@H](c2ccc(Cl)c(Cl)c2)c2ccccc21 [sertraline benzenesulfonic acid salt, Benzenesulfonic Acid Salt of Sertraline] ? 900 µg/mL
